# target.desc: biotinylated SARS-CoV-2 S1 variant B.1.351 (Example 5) (SARS-CoV-2) (UniProt P0DTC2)
# measurement.notes: phage ELISA screening
measure.name: ELISA
Answers are plain numbers.

11-18 (antibody, V domains shown) VH: QVQLVESGGGVVQPGRSLRLSCAASGFTFGTYAMHWVRQAPGKGLEWVAVISYDGNNKYYADSVKGRFTISRDNSKNTLYLQMNSLRAEDTAVYYCAKTGSGSYYSWFDYWGQGTLVTVSS VL: EIVLTQSPATLSLSPGERATLSCRASQSLTSYLAWYQQKPGQAPRLLIYDASNRATGIPARFSGSGSGTDFTLTISSLEPEDFAVYYCQQRHYWPPITFGGGTKVEIK : 3.7
12-13 (antibody, V domains shown) VH: QVQLVESGGGVVQPGRSLRLSCAASGFSFSTYGMHWVRQAPGKGLEWVAVISYDGSNKYYADSVKGRFTISRDNSKNTLYLQMNSLRAEDTAVYYCARPLSGSYWSWFDPWGQGTLVTVSS VL: EIVLTQSPATLSLSPGERATLSCRASQSVGSYLAWYQQKPGQAPRLLIYDAVNRATGIPARFSGSGSGTDFTLTISSLEPEDFAVYYCQQRNSWPPATFGGGTKVEIK : 18.1

-- ask What measured ELISA goes with 12-15 (antibody, V domains shown) VH: QVQLVESGGGVVQPGRSLRLSCAASGFSFGGYGMHWVRQAPGKGLEWVAVISYDGSNKYYADSVKGRFTISRDNSKNTLYLQMNSLRAEDTAVYYCARPYSGSYISWFDYWGQGTLVTVSS VL: EIVLTQSPATLSLSPGERATLSCRASQSVSSHLAWYQQKPGQAPRLLIYDVSNRATGIPARFSGSGSGTDFTLTISSLEPEDFAVYYCQVRSDWPPLTFGGGTKVEIK ?
-- reply 17.6
